Where these numbers come from: patent US9382295B2

Reported Ki values follow for various molecules
TARGET DESC: cyclophilin A (Cyp A) (Homo sapiens, UniProt P62937)
Construct: purchased Sigma C3805
Sequence (P62937 whole entry): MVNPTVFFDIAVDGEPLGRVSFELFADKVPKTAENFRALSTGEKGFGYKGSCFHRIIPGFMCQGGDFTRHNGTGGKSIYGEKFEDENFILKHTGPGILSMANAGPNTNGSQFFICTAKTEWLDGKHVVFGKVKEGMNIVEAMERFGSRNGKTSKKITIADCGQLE
ASSAY EXPLANATION: Protease-free PPIase assay, cyclophilin A
Format: biochemical
ASSAY CONTEXT: protease-free PPIase assay, class symbols; read-out: CypA Ki
Numbered stars: 1 amine (or outer) side, 2 acyl side, 3 side chain; on linkers, the order of the positions; unused ones are H or OH. Square brackets hold non-standard residues; d marks the D form. Peptide text beside a SMILES is read from it. X13 = C[C@H](CCN(Cc1ccccn1)Cc1ccccn1)[C@@H](O)[C@H](C(=O)[*:2])N(C)[*:1]; X19 = C[C@H](CCN1CCCC(C(F)(F)F)C1)[C@@H](O)[C@H](C(=O)[*:2])N(C)[*:1]; X33 = C[C@H](CCN1CCC(F)(CO)CC1)[C@@H](O)[C@H](C(=O)[*:2])N(C)[*:1]; d(aThr) = C[C@@H](O)[C@@H](N)C(=O)O; NMeL = CN[C@@H](CC(C)C)C(=O)O; dNMeL = CN[C@H](CC(C)C)C(=O)O; dNMeV = CN[C@@H](C(=O)O)C(C)C; Hiv = CC(C)[C@H](O)C(=O)O; Sar = CNCC(=O)O

Some solved entries appear below for comparison.
1. CC(C)C[C@@H]1C(=O)N[C@H](CC(C)C)C(=O)N(C)[C@H](C(C)C)C(=O)N(C)[C@H]([C@H](O)[C@H](C)CCN2CCCC(C(F)(F)F)C2)C(=O)N[C@H]([C@@H](C)O)C(=O)N(C)CC(=O)N(C)[C@@H](CC(C)C)C(=O)N[C@H](CC(C)C)C(=O)N(C)[C@H](CC(C)C)C(=O)N[C@H](C)C(=O)O[C@@H](C(C)C)C(=O)N1C (stereo partly drawn) [Example 9] (cyclo([Hiv][dNMeL][dL][dNMeV][X19][d(aThr)][Sar][NMeL][dL][dNMeL][dA])): 1 to 25 nM
2. CC(C)C[C@@H]1C(=O)N[C@H](CC(C)C)C(=O)N(C)[C@H](C(C)C)C(=O)N(C)[C@H]([C@H](O)[C@H](C)CCN2CCC(F)(CO)CC2)C(=O)N[C@H]([C@@H](C)O)C(=O)N(C)CC(=O)N(C)[C@@H](CC(C)C)C(=O)N[C@H](CC(C)C)C(=O)N(C)[C@H](CC(C)C)C(=O)N[C@H](C)C(=O)O[C@@H](C(C)C)C(=O)N1C [Example 25] (cyclo([Hiv][dNMeL][dL][dNMeV][X33][d(aThr)][Sar][NMeL][dL][dNMeL][dA])): 100 to 300 nM

Inquiry: Read the entry CC(C)C[C@@H]1C(=O)N[C@H](CC(C)C)C(=O)N(C)[C@H](C(C)C)C(=O)N(C)[C@H]([C@H](O)[C@H](C)CCN(Cc2ccccn2)Cc2ccccn2)C(=O)N[C@H]([C@@H](C)O)C(=O)N(C)CC(=O)N(C)[C@@H](CC(C)C)C(=O)N[C@H](CC(C)C)C(=O)N(C)[C@H](CC(C)C)C(=O)N[C@H](C)C(=O)O[C@@H](C(C)C)C(=O)N1C [Example 30] (cyclo([Hiv][dNMeL][dL][dNMeV][X13][d(aThr)][Sar][NMeL][dL][dNMeL][dA])) and write its reported Ki.
Reply text: 25 to 100 nM
